# STUDY TARGET: Thromboxane A2 receptor (Homo sapiens) (UniProt P21731)
# Sequence (whole entry): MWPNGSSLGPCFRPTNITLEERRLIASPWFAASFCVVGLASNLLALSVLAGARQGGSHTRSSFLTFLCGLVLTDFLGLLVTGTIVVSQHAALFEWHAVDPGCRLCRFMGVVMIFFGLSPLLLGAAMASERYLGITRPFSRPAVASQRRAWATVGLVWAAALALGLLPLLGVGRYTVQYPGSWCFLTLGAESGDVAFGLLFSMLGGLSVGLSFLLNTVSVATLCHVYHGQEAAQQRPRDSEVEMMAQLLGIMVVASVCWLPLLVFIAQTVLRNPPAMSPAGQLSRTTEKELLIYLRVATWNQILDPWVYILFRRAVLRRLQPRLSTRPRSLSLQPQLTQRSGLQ
# TEST METHOD NOTES: Tested in vitro for percent inhibition against TXA2 / PGH-2 receptor using [125I]PTA-OH in human platelets at 10 e-7 M
Measured inhibition by item
Numeric only. Scale: %

Example compounds with recorded inhibition:
- COMPOUND: "O=C(O)CC1CCCc2c1n(Cc1ccc(Cl)cc1)c1ccc(F)cc21 (configuration not stated)"
  MEASUREMENT NAME: "inhibition"
  RECORDED NUMBER: 100
- COMPOUND: "CC(C)(CC(=O)O)Cc1nc2cc(F)ccc2n1Cc1ccc(S(C)(=O)=O)cc1"
  MEASUREMENT NAME: "inhibition"
  RECORDED NUMBER: 100
- COMPOUND: "CC(C)(CC(=O)O)c1nc2ccccc2n1Cc1ccc(Cl)cc1"
  MEASUREMENT NAME: "inhibition"
  RECORDED NUMBER: 0

Challenge: So what's the measured inhibition for this one? `CC(C)(CC(=O)O)Cc1nc2cc(Cl)ccc2n1Cc1ccc(S(C)(=O)=O)cc1`
Response given: 69

Challenge: Which inhibition is listed for CC(CC(=O)O)Cc1nc2ccccc2n1Cc1ccc(Cl)cc1 (configuration not stated) ?
Response given: 10

Challenge: Form field: reported inhibition of `CC(C)(CC(=O)O)Cc1nc2ccccc2n1Cc1ccc(Br)cc1F`
Response given: 88

----------
Let's look at some compounds and their measured inhibition.
# STUDY TARGET: Thromboxane A2 receptor (Homo sapiens)
# TEST METHOD NOTES: Tested in vitro for percent inhibition against TXA2 / PGH-2 receptor using [125I]PTA-OH in human platelets at 10 e-7 M
Give just the numeric value; % need not be written.

- COMPOUND: "O=C(O)[C@H]1CC[C@@H]1c1nc2cc(F)ccc2n1Cc1ccc(Cl)cc1"
  inhibition, %: 2
- COMPOUND: "CC(C)(CC(=O)O)Cc1nc2ccccc2n1Cc1ccc(O)cc1"
  inhibition, %: 50
- COMPOUND: "CC(Sc1nc2cc(F)ccc2n1Cc1ccc(Cl)cc1)C(=O)O (stereo unspecified)"
  inhibition, %: 9

Challenge: Look up inhibition for this compound: `CC(C)(CC(=O)O)Cc1nc2cc(Cl)ccc2n1Cc1ccc(Cl)cc1F`
Response given: 77

Challenge: Which value of inhibition has been reported for `COc1ccc(Cn2c(CC(C)(C)CC(=O)O)nc3ccccc32)cc1` in the records?
Response given: 89

Challenge: Name the recorded inhibition for `CC(C)(CC(=O)O)Cc1nc2ccccc2n1Cc1ccc([N+](=O)[O-])cc1` .
Response given: 83

The measured values listed here are drawn from ChEMBL document CHEMBL1126650.
